Test system: PCSK9 mRNA
Format: cell-based, human
Recorded Conditions: Hep3B cells, 100 nM, relative to untreated control cells, 0 = no reduction observed
Strand notation (5' to 3'): a small letter for the sugar, then the base; units joined by * are phosphorothioate-linked, units joined directly phosphodiester-linked; [ ] holds rarer units or linkages, { } end groups; capitals alone tell only the bases. e = 2'-O-(2-methoxyethyl) (MOE); [5mC] = 5-methylcytosine; d = 2'-deoxy (DNA)
Measure: % Inhib (%)
Numeric only. Scale: %

*Q* Test system PCSK9 mRNA; read-out % Inhib; what value for 400331 (antisense eG*e[5mC]*d[5mC]*dA*d[5mC]*dG*dT*dG*dG*dG*d[5mC]*dA*eG*e[5mC]) [compound 400331] ?
*A* 35

*Q* Checklist item: % Inhib tested on PCSK9 mRNA, entry 400367 (antisense eG*eG*d[5mC]*dT*d[5mC]*d[5mC]*dG*dG*d[5mC]*dA*dG*d[5mC]*eA*eG) [compound 400367] , value?
*A* 12

*Q* PCSK9 mRNA / % Inhib / 400317 (antisense e[5mC]*eT*dA*dT*dG*dA*dG*dG*dG*dT*dG*d[5mC]*e[5mC]*eG) [compound 400317] : value?
*A* 7

*Q* Query the reported % Inhib for PCSK9 mRNA; item: 400337 (antisense eG*eT*d[5mC]*d[5mC]*dT*d[5mC]*dA*dG*dG*dG*dA*dA*e[5mC]*e[5mC]) [compound 400337]
*A* 0

*Q* Write down the reported % Inhib of 400308 (antisense e[5mC]*e[5mC]*dG*dG*d[5mC]*d[5mC]*dG*d[5mC]*dT*dG*dA*d[5mC]*e[5mC]*eA) [compound 400308] , test system: PCSK9 mRNA.
*A* 55

*Q* API: value(readout= % Inhib, system= PCSK9 mRNA, query= 400324 (antisense eG*eA*dG*dT*dA*dG*dA*dG*dG*d[5mC]*dA*dG*eG*e[5mC]) [compound 400324] )
*A* 7

*Q* Return % Inhib measured with PCSK9 mRNA given this substance: 400306 (antisense e[5mC]*eT*dG*dT*d[5mC]*dA*d[5mC]*dA*d[5mC]*dT*dT*dG*e[5mC]*eT) [compound 400306]
*A* 40

*Q* Find % Inhib (PCSK9 mRNA) for the entry 400366 (antisense eG*e[5mC]*dT*d[5mC]*d[5mC]*dG*dG*d[5mC]*dA*dG*d[5mC]*dA*eG*eA) [compound 400366]
*A* 15

*Q* Report % Inhib for 400326 (antisense eT*e[5mC]*d[5mC]*d[5mC]*d[5mC]*dA*dA*dA*dG*dT*d[5mC]*d[5mC]*e[5mC]*e[5mC]) [compound 400326] tested on PCSK9 mRNA.
*A* 0

*Q* Param readout= % Inhib; system= PCSK9 mRNA; entry= 400336 (antisense eT*e[5mC]*d[5mC]*dT*d[5mC]*dA*dG*dG*dG*dA*dA*d[5mC]*e[5mC]*eA) [compound 400336] ; returns value.
*A* 4

*Q* Reported % Inhib for PCSK9 mRNA, given 400321 (antisense eT*e[5mC]*d[5mC]*dG*dA*dA*dT*dA*dA*dA*d[5mC]*dT*e[5mC]*e[5mC]) [compound 400321] ?
*A* 0

*Q* Which measured % Inhib belongs to 400347 (antisense eG*eG*dA*dG*d[5mC]*dA*dG*d[5mC]*dT*d[5mC]*dA*dG*e[5mC]*eA) [compound 400347] , tested on PCSK9 mRNA?
*A* 0

*Q* Observed % Inhib on PCSK9 mRNA for 400325 (antisense e[5mC]*e[5mC]*d[5mC]*d[5mC]*dA*dA*dA*dG*dT*d[5mC]*d[5mC]*d[5mC]*e[5mC]*eA) [compound 400325] , please.
*A* 4

*Q* Given the entry 400323 (antisense eG*e[5mC]*d[5mC]*dA*dG*dG*dG*dG*d[5mC]*dA*dG*d[5mC]*eA*eG) [compound 400323] , what % Inhib was observed with PCSK9 mRNA?
*A* 0

*Q* I'm curious: which % Inhib was measured for 400357 (antisense eT*eG*dG*d[5mC]*dA*dG*d[5mC]*dA*dG*dG*dA*dA*eG*e[5mC]) [compound 400357] tested on PCSK9 mRNA?
*A* 0

*Q* # value lookup — system PCSK9 mRNA, readout % Inhib, item 400340 (antisense e[5mC]*eT*dG*dG*dT*d[5mC]*d[5mC]*dT*d[5mC]*dA*dG*dG*eG*eA) [compound 400340]
*A* 0

*Q* What is its % Inhib for PCSK9 mRNA? Entry: 400339 (antisense eT*eG*dG*dT*d[5mC]*d[5mC]*dT*d[5mC]*dA*dG*dG*dG*eA*eA) [compound 400339]
*A* 0

*Q* So what % Inhib did 400312 (antisense e[5mC]*eA*dT*d[5mC]*d[5mC]*d[5mC]*dG*dG*d[5mC]*d[5mC]*dG*d[5mC]*eT*eG) [compound 400312] get with PCSK9 mRNA?
*A* 28

*Q* % Inhib of 400298 (antisense e[5mC]*eA*dT*dG*dG*dG*dG*d[5mC]*dA*dA*d[5mC]*dT*eT*e[5mC]) [compound 400298] on PCSK9 mRNA?
*A* 0

*Q* Quick check: % Inhib on PCSK9 mRNA, item 400345 (antisense eT*eG*dG*dG*dT*dG*d[5mC]*dT*dG*dG*dG*dG*eG*eG) [compound 400345] ?
*A* 0

*Q* Checklist item: % Inhib tested on PCSK9 mRNA, entry 400359 (antisense e[5mC]*eA*dT*dG*dG*d[5mC]*dA*dG*d[5mC]*dA*dG*dG*eA*eA) [compound 400359] , value?
*A* 0

*Q* // lookup % Inhib | system=PCSK9 mRNA | key= 400368 (antisense e[5mC]*eG*dG*d[5mC]*dT*d[5mC]*d[5mC]*dG*dG*d[5mC]*dA*dG*e[5mC]*eA) [compound 400368]
*A* 11

*Q* Give % Inhib (PCSK9 mRNA) of the following substance: 400365 (antisense e[5mC]*eT*d[5mC]*d[5mC]*dG*dG*d[5mC]*dA*dG*d[5mC]*dA*dG*eA*eT) [compound 400365]
*A* 25

*Q* Give recorded % Inhib with PCSK9 mRNA for the following substance: 400338 (antisense eG*eG*dT*d[5mC]*d[5mC]*dT*d[5mC]*dA*dG*dG*dG*dA*eA*e[5mC]) [compound 400338]
*A* 9

*Q* Request: % Inhib, test system PCSK9 mRNA, entry 400363 (antisense e[5mC]*e[5mC]*dG*dG*d[5mC]*dA*dG*d[5mC]*dA*dG*dA*dT*eG*eG) [compound 400363]
*A* 8

----------
System: PCSK9 mRNA
Assay type: cell-based, human
Recorded Conditions: Hep3B cells, 100 nM, relative to untreated control cells, 0 = no reduction observed
Strand notation (5' to 3'): a small letter for the sugar, then the base; units joined by * are phosphorothioate-linked, units joined directly phosphodiester-linked; [ ] holds rarer units or linkages, { } end groups; capitals alone tell only the bases. e = 2'-O-(2-methoxyethyl) (MOE); [5mC] = 5-methylcytosine; d = 2'-deoxy (DNA)
Measure: % Inhib
The answer should read as a number with its unit following.

*Q* What does the data say about its % Inhib? Entry: 400318 (antisense e[5mC]*e[5mC]*dT*dA*dT*dG*dA*dG*dG*dG*dT*dG*e[5mC]*e[5mC]) [compound 400318]
*A* 26%

*Q* Need % Inhib, item 400314 (antisense eG*eT*dG*d[5mC]*d[5mC]*d[5mC]*dT*dT*d[5mC]*d[5mC]*d[5mC]*dT*eT*eG) [compound 400314]
*A* 26%

*Q* Value lookup for % Inhib; key = 400344 (antisense eG*eG*dG*dT*dG*d[5mC]*dT*dG*dG*dG*dG*dG*eG*e[5mC]) [compound 400344]
*A* 0%

*Q* Fill in the blank: the reported % Inhib of 400333 (antisense eT*e[5mC]*dA*dG*dG*dG*dA*dA*d[5mC]*d[5mC]*dA*dG*eG*e[5mC]) [compound 400333] is ____.
*A* 0%

*Q* Quick one: % Inhib for 400302 (antisense eG*eA*dT*dA*d[5mC]*dA*d[5mC]*d[5mC]*dT*d[5mC]*d[5mC]*dA*e[5mC]*e[5mC]) [compound 400302] ?
*A* 0%

*Q* Using the record for 400329 (antisense e[5mC]*eA*d[5mC]*dG*dT*dG*dG*dG*d[5mC]*dA*dG*d[5mC]*eA*eG) [compound 400329] , report its % Inhib.
*A* 14%

----------
Tested on: mouse SGLT2 mRNA
Experiment Summary: Mouse SGLT2 mRNA in kidney, MOE versus Methyleneoxy BNA gapmers (Table 69)
Assay type: in vivo
Recorded Conditions: 5 nmol/kg i.p. twice per week for three weeks, Balb/c mouse kidney
Strand notation (5' to 3'): a small letter for the sugar, then the base; units joined by * are phosphorothioate-linked, units joined directly phosphodiester-linked; [ ] holds rarer units or linkages, { } end groups; capitals alone tell only the bases. e = 2'-O-(2-methoxyethyl) (MOE); l = locked nucleic acid (LNA); [5mC] = 5-methylcytosine; d = 2'-deoxy (DNA)
Hi there, I'd appreciate the recorded SGLT2 mRNA, percent change relative to saline treated animals for every entry that follows.
The reply should contain only the number, in %.

*Q* Which SGLT2 mRNA, percent change relative to saline treated animals is reported for this substance? ISIS 392170: 1-10-1 Methyleneoxy BNA Gapmer, SGLT2 (lT*dG*dT*dT*d[5mC]*d[5mC]*dA*dG*d[5mC]*d[5mC]*d[5mC]*lA)
*A* −23

*Q* Dear colleague, I am looking for the recorded SGLT2 mRNA, percent change relative to saline treated animals of the following substance: ISIS 379692: 1-10-1 MOE gapmer, SGLT2 (eT*dG*dT*dT*d[5mC]*d[5mC]*dA*dG*d[5mC]*d[5mC]*d[5mC]*eA)
*A* −7

*Q* Consider the substance shown here: ISIS 392173: 2-8-2 Methyleneoxy BNA Gapmer, SGLT2 (lT*lG*dT*dT*d[5mC]*d[5mC]*dA*dG*d[5mC]*d[5mC]*l[5mC]*lA) What is its recorded SGLT2 mRNA, percent change relative to saline treated animals?
*A* −44

*Q* Look at this substance and give its reported SGLT2 mRNA, percent change relative to saline treated animals. ISIS 388625: TGTTCCAGCCCA 2-8-2 MOE Gapmer, SGLT2 (eT*eG*dT*dT*d[5mC]*d[5mC]*dA*dG*d[5mC]*d[5mC]*e[5mC]*eA)
*A* −18
